Consider the following binders; for each one, report its koff.
Test target: T1, human interleukin 12 (p70 heterodimer of p35 and p40) (human, UniProt P29459 23-219; P29460 23-328)
T1 construct: Recombinant human IL-12; p35 and p40 linked by a disulfide bridge; also called hIL-12; IL-12
T1 sequence (looked up) 1: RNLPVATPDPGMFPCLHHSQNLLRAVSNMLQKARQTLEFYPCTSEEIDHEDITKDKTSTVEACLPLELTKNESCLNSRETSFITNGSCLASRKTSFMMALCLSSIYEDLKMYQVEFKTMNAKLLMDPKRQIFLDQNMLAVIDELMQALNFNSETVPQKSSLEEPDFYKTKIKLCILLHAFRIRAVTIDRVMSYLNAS
T1 sequence (looked up) 2: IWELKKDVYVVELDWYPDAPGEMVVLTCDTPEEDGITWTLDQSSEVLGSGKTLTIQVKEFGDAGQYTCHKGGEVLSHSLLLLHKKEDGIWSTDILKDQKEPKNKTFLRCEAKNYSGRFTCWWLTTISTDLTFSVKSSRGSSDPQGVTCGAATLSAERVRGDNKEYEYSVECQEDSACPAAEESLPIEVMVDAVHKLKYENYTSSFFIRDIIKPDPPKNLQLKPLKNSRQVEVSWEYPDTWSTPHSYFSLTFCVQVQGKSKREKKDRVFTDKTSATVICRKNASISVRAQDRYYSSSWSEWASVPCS
Protocol summary: BIAcore
Write the number in s⁻¹ without appending the unit.

Input line: Please list koff recorded for the binder Y61-L30C (scFv, V domains shown, copies: 1 + 1) VH: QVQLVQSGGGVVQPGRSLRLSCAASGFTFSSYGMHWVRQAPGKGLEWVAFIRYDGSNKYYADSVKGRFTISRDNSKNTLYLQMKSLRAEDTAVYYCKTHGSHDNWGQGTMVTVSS VL: SYVLTQPPSVSGTPGQRVTISCSGGRSNIGCNTVKWYQQLPGTAPKLLIYGNDQRPSGVPDRFSGSKSGTSASLAITGVQAEDEADYYCQSYDRGTHPALLFGTGTKVTVL
Output line: 0.000186

Input line: Given the binder Y61-L30K (scFv, V domains shown, copies: 1 + 1) VH: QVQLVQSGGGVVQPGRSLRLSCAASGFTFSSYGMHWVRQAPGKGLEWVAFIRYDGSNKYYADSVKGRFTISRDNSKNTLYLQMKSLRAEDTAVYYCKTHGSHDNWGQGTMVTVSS VL: SYVLTQPPSVSGTPGQRVTISCSGGRSNIGKNTVKWYQQLPGTAPKLLIYGNDQRPSGVPDRFSGSKSGTSASLAITGVQAEDEADYYCQSYDRGTHPALLFGTGTKVTVL , write its reported koff.
Output line: 0.000346

Input line: Hello, please tell me recorded koff for this one: Y61-L30Y (scFv, V domains shown, copies: 1 + 1) VH: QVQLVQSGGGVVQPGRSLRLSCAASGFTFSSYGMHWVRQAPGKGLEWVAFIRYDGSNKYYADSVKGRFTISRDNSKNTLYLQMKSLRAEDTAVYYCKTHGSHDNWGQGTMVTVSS VL: SYVLTQPPSVSGTPGQRVTISCSGGRSNIGYNTVKWYQQLPGTAPKLLIYGNDQRPSGVPDRFSGSKSGTSASLAITGVQAEDEADYYCQSYDRGTHPALLFGTGTKVTVL
Output line: 0.000483

Input line: Supply measured koff of Y61-L30N (scFv, V domains shown, copies: 1 + 1) VH: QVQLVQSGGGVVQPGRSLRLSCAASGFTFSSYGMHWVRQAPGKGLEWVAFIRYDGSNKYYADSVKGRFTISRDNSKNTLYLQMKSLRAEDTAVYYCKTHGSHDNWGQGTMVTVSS VL: SYVLTQPPSVSGTPGQRVTISCSGGRSNIGNNTVKWYQQLPGTAPKLLIYGNDQRPSGVPDRFSGSKSGTSASLAITGVQAEDEADYYCQSYDRGTHPALLFGTGTKVTVL in your reply.
Output line: 0.000166

Input line: Name the recorded koff of the item Y61-L30R (scFv, V domains shown, copies: 1 + 1) VH: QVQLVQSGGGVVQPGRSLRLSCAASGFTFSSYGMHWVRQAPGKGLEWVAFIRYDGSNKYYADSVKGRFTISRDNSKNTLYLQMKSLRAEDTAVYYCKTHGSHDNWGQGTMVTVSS VL: SYVLTQPPSVSGTPGQRVTISCSGGRSNIGRNTVKWYQQLPGTAPKLLIYGNDQRPSGVPDRFSGSKSGTSASLAITGVQAEDEADYYCQSYDRGTHPALLFGTGTKVTVL in your answer.
Output line: 0.000182

Input line: State its koff: Y61-L30D (scFv, V domains shown, copies: 1 + 1) VH: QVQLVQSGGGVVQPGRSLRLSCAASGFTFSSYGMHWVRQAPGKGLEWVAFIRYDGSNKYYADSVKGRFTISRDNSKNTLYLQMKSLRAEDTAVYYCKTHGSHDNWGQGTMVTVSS VL: SYVLTQPPSVSGTPGQRVTISCSGGRSNIGDNTVKWYQQLPGTAPKLLIYGNDQRPSGVPDRFSGSKSGTSASLAITGVQAEDEADYYCQSYDRGTHPALLFGTGTKVTVL
Output line: 0.00022
